// reported shrunken log2 fold change per item
Test system: Escherichia coli TOP10
Assay: shrunken log2 fold change of peptide-encoding DNA abundance (4.5 h post-induction vs induction); higher = less antimicrobial activity (less host growth inhibition)
Conditions: time post-induction: 4.5 h; library: site-saturation at positions 5, 18, 19, 20
Reply with the value as a number alone.

Some sequences with recorded shrunken log2 fold change:
>  <Sequence entry>
RRIRNRPPRLPRPRPRPCCGPRP

>  <Target or system>
Escherichia coli TOP10

>  <shrunken log2 fold change>
-0.148

$$$$
>  <Sequence entry>
RRIRERPPRLPRPRPRPAIAPRP

>  <Target or system>
Escherichia coli TOP10

>  <shrunken log2 fold change>
0.0488

$$$$
>  <Sequence entry>
RRIRNRPPRLPRPRPRPASTPRP

>  <Target or system>
Escherichia coli TOP10

>  <shrunken log2 fold change>
-0.269

$$$$
>  <Sequence entry>
RRIRTRPPRLPRPRPRPYIRPRP

>  <Target or system>
Escherichia coli TOP10

>  <shrunken log2 fold change>
-1.31

$$$$

Moving on to another sequence below.
[in] I am curious: what shrunken log2 fold change value has been reported for RRIRDRPPRLPRPRPRPPIFPRP ?
[out] -0.129

====

Test system: Escherichia coli TOP10
Experiment: shrunken log2 fold change of peptide-encoding DNA abundance (4.5 h post-induction vs induction); higher = less antimicrobial activity (less host growth inhibition)
Conditions: time post-induction: 4.5 h; library: site-saturation at positions 5, 18, 19, 20
Below is a list of entries, each paired with its recorded shrunken log2 fold change value.
The reply should be a number, written without any unit.

[in] What value of shrunken log2 fold change has been reported for the following sequence? RRIRIRPPRLPRPRPRPVSMPRP
[out] 0.0888

[in] Requested field: shrunken log2 fold change. Item: RRIRMRPPRLPRPRPRPCVNPRP
[out] -0.111

[in] Query: shrunken log2 fold change; subject: RRIRIRPPRLPRPRPRPCNCPRP
[out] 0.174

[in] shrunken log2 fold change lookup needed for RRIRWRPPRLPRPRPRPDHGPRP , thanks.
[out] -0.104

[in] Which shrunken log2 fold change value belongs to RRIRVRPPRLPRPRPRPKEKPRP ?
[out] -0.0337

[in] Name the recorded shrunken log2 fold change for RRIRNRPPRLPRPRPRPCIMPRP .
[out] -0.135

[in] Look up shrunken log2 fold change: RRIRRRPPRLPRPRPRPMMNPRP
[out] 0.00643

[in] What value of measured shrunken log2 fold change is listed for RRIRLRPPRLPRPRPRPNPTPRP ?
[out] -0.149

[in] Consider the sequence RRIRCRPPRLPRPRPRPSGLPRP and give its measured shrunken log2 fold change.
[out] 0.0264

[in] I have this sequence here, RRIRCRPPRLPRPRPRPRTPPRP , and I need its recorded shrunken log2 fold change.
[out] 0.571

[in] // returns reported shrunken log2 fold change for input RRIRPRPPRLPRPRPRPVCEPRP
[out] 0.227

[in] Which value of shrunken log2 fold change has been reported for RRIRQRPPRLPRPRPRPPTTPRP in the records?
[out] -0.0101

[in] // shrunken log2 fold change lookup, key: RRIRHRPPRLPRPRPRPWPWPRP
[out] 0.199

[in] Which shrunken log2 fold change value is on record for RRIRDRPPRLPRPRPRPTSNPRP ?
[out] 0.24

[in] Find the recorded shrunken log2 fold change belonging to RRIRTRPPRLPRPRPRPKAPPRP and report it.
[out] 0.317

[in] # input sequence: RRIRNRPPRLPRPRPRPVWGPRP ; wanted: its shrunken log2 fold change
[out] 0.283

====

Tested on: Escherichia coli TOP10
Assay: shrunken log2 fold change of peptide-encoding DNA abundance (4.5 h post-induction vs induction); higher = less antimicrobial activity (less host growth inhibition)
Conditions: time post-induction: 4.5 h; library: site-saturation at positions 5, 18, 19, 20
Output fulfilled for shrunken log2 fold change not less than -0.2; output not fulfilled otherwise.

Sample answers from the record:
>  <Sequence entry>
RRIRHRPPRLPRPRPRPVYIPRP

>  <Category>
fulfilled

$$$$
>  <Sequence entry>
RRIRHRPPRLPRPRPRPRSMPRP

>  <Category>
not fulfilled

$$$$
>  <Sequence entry>
RRIRDRPPRLPRPRPRPMSMPRP

>  <Category>
fulfilled

$$$$
>  <Sequence entry>
RRIRSRPPRLPRPRPRPWANPRP

>  <Category>
fulfilled

$$$$
>  <Sequence entry>
RRIRHRPPRLPRPRPRPWDRPRP

>  <Category>
fulfilled

$$$$
>  <Sequence entry>
RRIRVRPPRLPRPRPRPNDTPRP

>  <Category>
not fulfilled

$$$$

[in] Has RRIRIRPPRLPRPRPRPGPYPRP a recorded shrunken log2 fold change greater than or equal to -0.2?
[out] not fulfilled

[in] Quick check, shrunken log2 fold change >= -0.2? RRIRKRPPRLPRPRPRPKWAPRP
[out] fulfilled

[in] Determine whether this sequence has shrunken log2 fold change no lower than -0.2: RRIRYRPPRLPRPRPRPLVVPRP
[out] not fulfilled

====

Entries annotated with measured shrunken log2 fold change
Tested on: Escherichia coli TOP10
Assay: shrunken log2 fold change of peptide-encoding DNA abundance (4.5 h post-induction vs induction); higher = less antimicrobial activity (less host growth inhibition)
Settings: time post-induction: 4.5 h; library: site-saturation at positions 5, 18, 19, 20
Simply state the number, no unit and no words.

>  <Sequence entry>
RRIRSRPPRLPRPRPRPEGVPRP

>  <shrunken log2 fold change>
0.552

$$$$
>  <Sequence entry>
RRIRKRPPRLPRPRPRPEESPRP

>  <shrunken log2 fold change>
0.0563

$$$$
>  <Sequence entry>
RRIRWRPPRLPRPRPRPRPDPRP

>  <shrunken log2 fold change>
0.518

$$$$
>  <Sequence entry>
RRIRNRPPRLPRPRPRPVCMPRP

>  <shrunken log2 fold change>
-0.0349

$$$$
>  <Sequence entry>
RRIRKRPPRLPRPRPRPTDGPRP

>  <shrunken log2 fold change>
0.396

$$$$

[in] Which measured shrunken log2 fold change value corresponds to RRIRWRPPRLPRPRPRPYTTPRP ?
[out] -0.537

[in] Entry RRIRSRPPRLPRPRPRPPYRPRP : reported shrunken log2 fold change = ?
[out] -0.119

[in] I have this sequence here, RRIRFRPPRLPRPRPRPSTGPRP , and I need its recorded shrunken log2 fold change.
[out] -0.787

[in] Which shrunken log2 fold change reading was recorded for the sequence RRIRERPPRLPRPRPRPVQNPRP ?
[out] -0.0413

[in] For RRIRIRPPRLPRPRPRPDNYPRP , what is its reported shrunken log2 fold change?
[out] -0.199

[in] Which shrunken log2 fold change is reported for this sequence? RRIRYRPPRLPRPRPRPLNCPRP
[out] -0.295

[in] Consider the sequence RRIRIRPPRLPRPRPRPYDFPRP and give its measured shrunken log2 fold change.
[out] 0.126

[in] shrunken log2 fold change for RRIRARPPRLPRPRPRPKAKPRP ?
[out] 0.287

[in] I have this sequence here, RRIRPRPPRLPRPRPRPNWPPRP , and I need its recorded shrunken log2 fold change.
[out] 0.0357

[in] Which shrunken log2 fold change is reported for this sequence? RRIRFRPPRLPRPRPRPGCGPRP
[out] 0.748

[in] Form field: reported shrunken log2 fold change of RRIRLRPPRLPRPRPRPFRFPRP
[out] -0.212

[in] Name the recorded shrunken log2 fold change for RRIRFRPPRLPRPRPRPIVGPRP .
[out] -0.0769

[in] Quick one: shrunken log2 fold change of RRIRVRPPRLPRPRPRPWEMPRP ?
[out] -0.00133

[in] Which shrunken log2 fold change value belongs to RRIRDRPPRLPRPRPRPNPIPRP ?
[out] -0.132

[in] What value of measured shrunken log2 fold change is listed for RRIRKRPPRLPRPRPRPYISPRP ?
[out] -0.0238

[in] Item RRIRRRPPRLPRPRPRPDYFPRP has what recorded shrunken log2 fold change?
[out] -0.0877

[in] Requested read-out: shrunken log2 fold change. Entry: RRIRFRPPRLPRPRPRPEFEPRP
[out] 0.122

[in] Please report the recorded shrunken log2 fold change for RRIRPRPPRLPRPRPRPSYGPRP .
[out] -0.2

[in] Returns the measured shrunken log2 fold change for the input sequence. Input: RRIRCRPPRLPRPRPRPLEHPRP
[out] -0.167

[in] Could you tell me which shrunken log2 fold change is on file for RRIRARPPRLPRPRPRPCQGPRP ?
[out] -0.11

====

Test system: Escherichia coli TOP10;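 also: peptides expressed intracellularly from a pBAD plasmid library in pooled LB shake-flask culture, induced with 0.3% L-arabinose, DNA abundance read by NGS, three biological replicates, DESeq2 with apeglm shrinkage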
Assay: shrunken log2 fold change of peptide-encoding DNA abundance (4.5 h post-induction vs induction); higher = less antimicrobial activity (less host growth inhibition)
Conditions: time post-induction: 4.5 h; library: site-saturation at positions 5, 18, 19, 20
Parameter: shrunken log2 fold change
Form: value (number only, do not type unit).

Below, 3 sequences whose answers are already recorded.
>  <Sequence entry>
RRIRCRPPRLPRPRPRPCESPRP

>  <Parameter>
shrunken log2 fold change

>  <Readout number>
-0.0611

$$$$
>  <Sequence entry>
RRIRFRPPRLPRPRPRPKLEPRP

>  <Parameter>
shrunken log2 fold change

>  <Readout number>
-0.0492

$$$$
>  <Sequence entry>
RRIRNRPPRLPRPRPRPMNGPRP

>  <Parameter>
shrunken log2 fold change

>  <Readout number>
0.015

$$$$

[in] Provide the documented shrunken log2 fold change with Escherichia coli TOP10 as the system for RRIRIRPPRLPRPRPRPCVVPRP
[out] -0.00586

[in] Hello, I am looking for reported shrunken log2 fold change with Escherichia coli TOP10 for RRIRERPPRLPRPRPRPMPFPRP . Could you help?
[out] 0.00529

[in] Give Escherichia coli TOP10 shrunken log2 fold change for RRIRWRPPRLPRPRPRPPAKPRP
[out] 0.56
